For each of the compounds below, state its Bliss excess.
# System: Hs-746T (Gastric Carcinoma);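 further: after 72 h of two-drug dosing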
# Protocol summary: Bliss excess, mean over the matrix (fraction); higher = more synergy

Check out these entries, answers already filled in.
| Compound | Target under test | Bliss excess |
| --- | --- | --- |
| Cn1cnc2c(F)c(Nc3ccc(Br)cc3Cl)c(C(=O)NOCCO)cc21 [Selumetinib] + C=CCn1c(=O)c2cnc(Nc3ccc(N4CCN(C)CC4)cc3)nc2n1-c1cccc(C(C)(C)O)n1 [AZD1775] (first compound max 10 µM, partner max 1 µM) | Hs-746T (Gastric Carcinoma) | -0.0275 |
| COc1nnc2ccc(N3CCC(c4ccc(OCCN5CCN(C)C(=O)[C@H]5C)cc4)CC3)nn12 [AZD5153] + Cn1cnc2c(F)c(Nc3ccc(Br)cc3Cl)c(C(=O)NOCCO)cc21 [Selumetinib] (first compound max 1 µM, 7x7, partner max 10 µM) | Hs-746T (Gastric Carcinoma) | -0.0227 |

Attention now shifts to the item below.
Req: Answer with the recorded Bliss excess of Cc1c2c(nn1C)CSCc1cc(n(C)n1)CSc1cc(c3ccccc3c1)OCCCc1c(C(=O)O)n(C)c3c-2c(Cl)ccc13 [AZD5991] + CC1(C)CCC(CN2CCN(c3ccc(C(=O)NS(=O)(=O)c4ccc(NCC5CCOCC5)c([N+](=O)[O-])c4)c(Oc4cnc5[nH]ccc5c4)c3)CC2)=C(c2ccc(Cl)cc2)C1 [Venetoclax] (first compound max 1 µM, 7x7, partner max 1 µM) only.
Resp: -0.0882
